# target-desc: Prostaglandin D2 receptor 2 (Homo sapiens, UniProt Q9Y5Y4)
# Sequence (Q9Y5Y4 whole entry): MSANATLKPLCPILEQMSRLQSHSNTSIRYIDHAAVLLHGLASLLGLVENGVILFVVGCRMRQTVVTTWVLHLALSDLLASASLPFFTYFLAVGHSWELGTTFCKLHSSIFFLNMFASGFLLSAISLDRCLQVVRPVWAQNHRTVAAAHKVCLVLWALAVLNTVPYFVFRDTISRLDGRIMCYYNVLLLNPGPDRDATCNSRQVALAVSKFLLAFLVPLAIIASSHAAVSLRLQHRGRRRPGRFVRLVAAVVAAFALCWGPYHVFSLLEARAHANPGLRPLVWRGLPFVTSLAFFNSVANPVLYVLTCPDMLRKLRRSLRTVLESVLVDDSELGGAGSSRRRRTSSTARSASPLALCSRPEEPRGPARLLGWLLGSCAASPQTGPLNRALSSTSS
# experimental-details: Antagonist activity at human CRTH2 receptor expressed in CHO cell membrane assessed as inhibition of PGD2-induced [35S]GTPgammaS binding after 30 mins by microbeta scintillation counting
pIC50: −log10 of the molar value.
measured-quantity: pIC50

CCCCC(=O)N(Cc1ccc2c(c1)OCCO2)c1cc(F)cc(-c2nnn[nH]2)c1: 8.55
CS(=O)(=O)c1ccc(CN(C(=O)Cc2ccccc2)c2cc(F)cc(-c3nnn[nH]3)c2)cc1: 8.43
CCCCC(=O)N(Cc1ccc(OC(F)(F)F)cc1)c1cc(Cl)cc(-c2nnn[nH]2)c1: 7.70
CCC(=O)N(Cc1cccc(OC)c1)c1cc(F)cc(-c2nnn[nH]2)c1: 7.19
CCC(=O)N(Cc1ccc(C(F)(F)F)cc1)c1cc(F)cc(-c2nnn[nH]2)c1: 7.43

I: CCCCC(=O)N(Cc1ccc(OC)cc1)c1cc(Cl)cc(-c2nnn[nH]2)c1
II: CS(=O)(=O)c1ccc(CN(C(=O)C2CCCC2)c2cc(F)cc(-c3nnn[nH]3)c2)cc1
q: Would you mind telling me which has the lower recorded pIC50 between I and II ? Identify your pick by its label.
a: II
(II: 7.24, I: 8.00)

* * *

# target-desc: Prostaglandin D2 receptor 2 (Homo sapiens, UniProt Q9Y5Y4)
# experimental-details: Displacement of [3HPGD2 from human CRTH2 receptor expressed in CHO cell membrane after 90 mins by scintillation proximity assay
pKi: −log10 of the molar value.
measured-quantity: pKi

CC(C)C(=O)N(Cc1ccc(S(C)(=O)=O)cc1)c1cc(F)cc(-c2nnn[nH]2)c1: 7.77

P: CS(=O)(=O)c1ccc(CN(C(=O)c2ccncc2)c2cc(F)cc(-c3nnn[nH]3)c2)cc1
Q: CCC(=O)N(Cc1ccc(OC)cc1)c1cccc(-c2nnn[nH]2)c1
R: Cc1ccc(CCC(=O)N(Cc2ccc(S(C)(=O)=O)cc2)c2cc(F)cc(-c3nnn[nH]3)c2)cc1
q: Ascending sort, pKi. Rank them, then answer with their labels in that order.
a: Q, P, R
(Q: 6.66, P: 7.77, R: 8.60)

* * *

# target-desc: Prostaglandin D2 receptor 2 (Homo sapiens, UniProt Q9Y5Y4)
# experimental-details: Displacement of [3HPGD2 from human CRTH2 receptor expressed in CHO cell membrane after 90 mins by scintillation proximity assay
measured-quantity: Ki (nM)

Examples with their reported Ki follow.
CCC(=O)N(Cc1ccc(S(=O)(=O)C(F)(F)F)cc1)c1cc(F)cc(-c2nnn[nH]2)c1: 5.2
CCC(=O)N(Cc1cccc(F)c1)c1cccc(-c2nnn[nH]2)c1: 1400
CCCCC(=O)N(Cc1cc2ccccc2o1)c1cc(-c2nnn[nH]2)ccc1F: 7.1
CC(C)CC(=O)N(Cc1ccc2c(c1)OCCO2)c1cc(-c2nnn[nH]2)ccc1F: 5.6
CCCCC(=O)N(Cc1ccc2cnccc2c1)c1cccc(-c2nnn[nH]2)c1: 330
CS(=O)(=O)c1ccc(CN(C(=O)Cc2ccccc2)c2cc(F)cc(-c3nnn[nH]3)c2)cc1: 0.9
CCC(=O)N(Cc1ccc2ccccc2n1)c1cc(F)cc(-c2nnn[nH]2)c1: 56
CCC(=O)N(Cc1cccc(C)c1)c1cccc(-c2nnn[nH]2)c1: 580
CS(=O)(=O)c1ccc(CN(C(=O)c2ccccc2)c2cc(F)cc(-c3nnn[nH]3)c2)cc1: 2.2
CCC(=O)N(Cc1ccc(OC(F)(F)F)cc1)c1cc(F)cc(-c2nnn[nH]2)c1: 6.9

I: CCCCC(=O)N(Cc1ccc(C(F)(F)F)cc1)c1cc(F)cc(-c2nnn[nH]2)c1
II: CS(=O)(=O)c1ccc(CN(C(=O)C2CCOCC2)c2cc(F)cc(-c3nnn[nH]3)c2)cc1
q: Rank I against II by their Ki values and give the higher one. Identify your pick by its label.
a: II

A: CCC(=O)N(Cc1ccccc1)c1cccc(-c2nnn[nH]2)c1
B: CCCCC(=O)N(Cc1cccc(OC(F)(F)F)c1)c1cc(F)cc(-c2nnn[nH]2)c1
q: Rank A against B by their Ki values and give the higher one. Identify your pick by its label.
a: A

A: CCCCC(=O)N(Cc1ccc2c(c1)OCCO2)c1cccc(CC(=O)O)c1
B: CCC(=O)N(Cc1cccc(OC)c1)c1cc(F)cc(-c2nnn[nH]2)c1
C: CCC(=O)N(Cc1ccc2c(c1)OCCO2)c1cccc(-c2nnn[nH]2)c1
q: Ascending sort, Ki. Rank them, then answer with their labels in that order.
a: B, C, A
(B: 8.2 nM, C: 42 nM, A: 4300 nM)
